// kinase still bound, per cent of control lookup, one value per entry
molecular target: PTK2 (human); assay: KINOMEscan competition binding; conditions: compound 10.0 µM
# value in %; strip the unit string

> print(dat)
                  compound.structure.string  endpoint.result
1  CCN(CC)CCCCNc1ncc2c(n1)N(C)C(=O)N(c1c(Cl)c(OC)cc(OC)c1Cl)C2              100
2  CN(C)C/C=C/C(=O)Nc1ccc(C(=O)Nc2cccc(Nc3nccc(-c4cccnc4)n3)c2)cc1              100
3  COc1cc(N2CCN(C)CC2)ccc1Nc1ncc2c(n1)N(C)c1ccccc1C(=O)N2C               16
4  COc1cc2ncnc(-n3nc(-c4ccccn4)nc3N)c2cc1OC               80
5  O=C(Nc1cccc(Nc2ncc(Br)c(NCCc3cnc[nH]3)n2)c1)N1CCCC1              0.2

*Q* Could you tell me which kinase still bound, per cent of control is on file for CNC(=O)c1cc(Oc2ccc(NC(=O)Nc3ccc(Cl)c(C(F)(F)F)c3)cc2)ccn1 ?
*A* 99

*Q* Could you tell me which kinase still bound, per cent of control is on file for NC(=O)Nc1cc(-c2cccc(F)c2)sc1C(=O)N[C@@H]1CCCNC1 ?
*A* 0.1

*Q* Could you tell me which kinase still bound, per cent of control is on file for CS(=O)(=O)N1CCN(Cc2cc3nc(-c4cccc5[nH]ncc45)nc(N4CCOCC4)c3s2)CC1 ?
*A* 100

*Q* Could you tell me which kinase still bound, per cent of control is on file for COc1ccc(N(C(=O)Oc2c(C)cccc2C)c2ccnc(Nc3ccc(N4CCN(C)CC4)cc3)n2)c(OC)c1 ?
*A* 32

*Q* Could you tell me which kinase still bound, per cent of control is on file for COc1cc2ncn(-c3cc(OCc4ccccc4C(F)(F)F)c(C(N)=O)s3)c2cc1OC ?
*A* 83

*Q* Could you tell me which kinase still bound, per cent of control is on file for C=CC(=O)Nc1ccc(CN(C(=O)Nc2c(Cl)c(OC)cc(OC)c2Cl)c2cc(Nc3ccc(N4CCN(C)CC4)cc3)ncn2)cc1 ?
*A* 100

*Q* Could you tell me which kinase still bound, per cent of control is on file for O=c1cc(N2CCOCC2)oc2c(-c3cccc4c3sc3ccccc34)cccc12 ?
*A* 70
